Taken from patent US20240166635A1.

- tested.on: CDK2/CyclinE1 (Homo sapiens (Human), UniProt P24941)
- method.summary: CDK2/CyclinE1 kinase inhibitory activity (Caliper mobility shift)
- condition.set: read-out: CDK2/Cyclin El IC50
Recorded IC50 for the following molecules
property: IC50

>>> df
                                   molecule    data_value
0  CS(=O)(=O)N1CCC(Nc2ncc(C(F)(F)F)c(OC3CCCCC3O)n2)CC1 (single isomer, unassigned) [Example 120b]  10 to 100 nM
1  NS(=O)(=O)c1ccc(Nc2ncc(C(F)(F)F)c(OC3CCOCC3O)n2)cc1 (single isomer, unassigned) [Example 114a]       < 10 nM
2  CN1CCC(NS(=O)(=O)c2ccc(Nc3ncc(Cl)c(OC4CCCC4O)n3)cc2)CC1 (single isomer, unassigned) [Example 139b]  10 to 100 nM
3  CC(C)NS(=O)(=O)c1ccc(Nc2ncc(Cl)c(OC3CCCC3O)n2)cc1 (single isomer, unassigned) [Example 138a]       < 10 nM
4  [2H]C([2H])([2H])NS(=O)(=O)c1ccc(Nc2ncc(C(=C)F)c(O[C@@H]3CCC[C@@H]3O)n2)cc1 (single isomer, unassigned) [Example 135b]  10 to 100 nM
5  CS(=O)(=O)N1CCC(Nc2ncc(C(F)(F)F)c(OC3CCCCCC3O)n2)CC1 (single isomer, unassigned) [Example 121b]  10 to 100 nM
